Reference source for all entries: patent US7297714B2

Biological target: Cathepsin S (Homo sapiens)
Sequence (P25774 115-331, species assumed): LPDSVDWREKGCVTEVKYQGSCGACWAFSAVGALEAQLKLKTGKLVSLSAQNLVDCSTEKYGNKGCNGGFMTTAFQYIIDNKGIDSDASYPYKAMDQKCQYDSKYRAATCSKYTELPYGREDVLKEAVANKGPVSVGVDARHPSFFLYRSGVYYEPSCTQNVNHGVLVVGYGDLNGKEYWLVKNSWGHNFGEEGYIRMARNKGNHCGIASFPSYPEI
Provide the reported Ki of each item.

> print(dat)
                                   compound  endpointlabel  observed
1  O=C1C[C@H](NC(=O)[C@H](CC2CCCC2)NS(=O)(=O)c2cccc(OC(F)(F)F)c2)C(O)O1 (stereo partly shown)             Ki  < 100 nM

Provide reported Ki for each item, in the same order as listed.
1. O=C1C[C@H](NC(=O)[C@@H](CC(=O)N2CCOCC2)CC2CCCCC2)C(O)O1 (stereo partly shown)
2. CCOC1OC(=O)C[C@@H]1NC(=O)[C@H](CC1CCCC1)NC(=O)c1ccc(-c2cccc(F)c2)o1 (stereo partly shown)
3. O=C1C[C@H](NC(=O)[C@H](CC2CCCC2)NC(=O)c2ccc(-c3cccc(C(F)(F)F)c3)o2)C(O)O1 (stereo partly shown)

A:
["< 100 nM", "< 100 nM", "< 100 nM"]
